# experiment: PLD activity (kcat/Km) of lyso-PAF-PLD and site-specific mutants against lyso-PAF
# Format: biochemical
# condition label: substrate lyso-PAF 0 to 5 mM, pH 7.5, 37° C.
endpoint name: kcat (s⁻¹)
Express your answer in s⁻¹, writing the number without its unit.

I would be grateful if you could share the reported kcat for M45A: lyso-PAF-PLD mutant, A substituted for M in the 45th position of SEQ ID NO: 9 (protein) MTTRTTDNPWLDARVLNMAHAGGENEAPANTLYAFKRAVKLGANALELDVQSTKDDQLVVIHNATVDQTTDGTGKVRDLTFEQVHELDAAYNFIPGRHAVPGEPPESYPLRGVRTGEKKPPPGYQPSDFAIPKLADVLEAFPRTPINIEIKGTSDADIPSFLHNAKLLARLLKKTGRTDFIVTSFNDLAVAKFHLLAPDIPIAPGMAGLAAYFLLGVKPMHGTVALQIPVRYQGLEIATPEFIRRAHADGYAVHVWFSGTAPDDEATYNRIIDSCADGLMPAYPALLERILDERGIERPGRPGVDPCG .
136
